target: CB2R (Homo sapiens); test: cell-based; type: cell-based
Sequence (P34972 whole entry): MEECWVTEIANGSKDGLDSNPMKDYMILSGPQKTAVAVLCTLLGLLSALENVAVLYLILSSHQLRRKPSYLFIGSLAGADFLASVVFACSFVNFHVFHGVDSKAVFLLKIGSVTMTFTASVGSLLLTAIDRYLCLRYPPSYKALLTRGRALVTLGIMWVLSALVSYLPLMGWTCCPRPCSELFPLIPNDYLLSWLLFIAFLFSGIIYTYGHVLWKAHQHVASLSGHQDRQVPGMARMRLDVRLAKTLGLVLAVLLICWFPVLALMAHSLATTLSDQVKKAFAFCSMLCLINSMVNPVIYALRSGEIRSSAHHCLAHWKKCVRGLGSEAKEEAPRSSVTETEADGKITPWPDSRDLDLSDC
pEC50: −log10 of the molar value.

{"Compound": "CCCCC/C=C\\C/C=C\\C/C=C\\C/C=C\\CCCC(=O)OC(CO)CO [2-AG, 2-arachidonoylglycerol, reference compound]", "Tgt": "CB2R (Homo sapiens)", "pEC50": 6.22}
